B1: Caulobacter ParB omega fusion; a variant is named by its letters at X, in order, B8GW30 (parent)
chain: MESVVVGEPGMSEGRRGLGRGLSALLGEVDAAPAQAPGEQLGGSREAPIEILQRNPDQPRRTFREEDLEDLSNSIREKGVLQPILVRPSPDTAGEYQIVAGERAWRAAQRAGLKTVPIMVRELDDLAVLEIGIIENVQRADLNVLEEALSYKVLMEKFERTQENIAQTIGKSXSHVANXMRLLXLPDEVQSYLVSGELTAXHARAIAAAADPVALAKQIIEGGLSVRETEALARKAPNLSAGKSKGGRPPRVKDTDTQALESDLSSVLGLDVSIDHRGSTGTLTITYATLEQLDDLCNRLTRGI

variants of: B1; test: one-hybrid fitness for binding parS DNA (scaled: cognate 1, non-cognate 0); higher = stronger binding; conditions: with parS DNA site
Whole data set: some 81,000 sequences, median “one-hybrid fitness for binding parS DNA” near -0.17, cut for the highest 2% near 0.51. This excerpt belongs to a sample that is enriched for the highest values.
assay-readout: one-hybrid fitness for binding parS DNA

[
  {
    "mutation-spec": "RVCN",
    "one-hybrid fitness for binding parS DNA": 0.438
  }
]

For the variant `HYMG` , what one-hybrid fitness for binding parS DNA is on record? ≤ 0.2

Dear colleague, I am looking for the recorded one-hybrid fitness for binding parS DNA of the following variant: `REHC` ≤ 0.2

Quick one: one-hybrid fitness for binding parS DNA for `YIVC` ? ≤ 0.2

Could you share which one-hybrid fitness for binding parS DNA value was measured for `ADCS` ? ≤ 0.2

Could you tell me which one-hybrid fitness for binding parS DNA is on file for `RYDS` ? 0.987

What measured one-hybrid fitness for binding parS DNA goes with `MPNM` ? ≤ 0.2
